B1: tRNA (parent)
chain: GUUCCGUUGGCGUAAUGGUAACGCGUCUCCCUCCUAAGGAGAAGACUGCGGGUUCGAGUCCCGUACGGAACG

variants of: B1; assay: yeast fitness relative to wild type (ratio to wild type); higher = fitter; tRNA-Arg(CCU), competitive growth, 37 C, YPD
Fewer inactive variants are shown than the library holds.
Give yeast fitness for every item shown.

Asked: Name the reported yeast fitness value associated with the variant GUUCCGUUGGCGUAAUGGUAACGCAUCUCCCUCCUAAGGAAAAGACUGCGGCUUCGAGUCCCGUACGGAACG
Given back: ≤ 0.5

Asked: Name the reported yeast fitness value associated with the variant GUUCCGUUGGGGUAAUGGUAACGGGUACCCCUCCUAAGGAGAAGACUGCGGGUUCGAGUCCCGUAUGGAACG
Given back: ≤ 0.5

Asked: Name the reported yeast fitness value associated with the variant GUUCCGUUGGCGUAAUGGUAUCGCGUCUCCCUCAUAAGGAGAAGACUGCGGGUACGAGUCCAGUACGGAGCG
Given back: ≤ 0.5

Asked: Name the reported yeast fitness value associated with the variant GUUCCGUUGCCGUAAUGGUAACGCGUCUCCCUCCUUAGGAAAAGACUGCGGGUUCGAGUCCCGUAUGGACCG
Given back: ≤ 0.5

Asked: Name the reported yeast fitness value associated with the variant GUUCCGUUGGCGUAAUGGUAACGCGUCUCCCUCCUAAGGGGAAGACUGCGGGUUCGAGUCCCGUACGGAACG
Given back: 1.01

Asked: Name the reported yeast fitness value associated with the variant GUUUCGUUGGCGUAAUGGUAAAGCGUCUCCCUCCUAAGGCGAAGACUGCGGGUUCGAGUCCCGUACGGAACG
Given back: ≤ 0.5

Asked: Name the reported yeast fitness value associated with the variant GUUCCGUUGGCGUAAUGGUAACGCGUCUCCCUCCUAAGGAGAAGACUGCGGGUUCGAGUCGCAUACGGAUCG
Given back: 0.562

Asked: Name the reported yeast fitness value associated with the variant GUUCGGUUGGCGAAAUGGUAAGGCGUCUGCCUCCUAAGGUGAAGACUGCGGGUCCGAGUCGCGUACAGAACG
Given back: ≤ 0.5

Asked: Name the reported yeast fitness value associated with the variant GUUCCGUUGGCGUAAUGGUAACGCGUCUCCCUGCUAAGGAGAAGACUGCGGGUUCGAGUCUCGUACGGAACG
Given back: 0.711

Asked: Name the reported yeast fitness value associated with the variant GUUCCGUUGGCGUAAUGGUGACGCGUCUCCCUCCUAAGGAGAAGACUGUGGGUUCGAGUCGCGUACGGAACG
Given back: 0.617

Asked: Name the reported yeast fitness value associated with the variant GCUCCCUUGGCGUAAUGGUACCGCGUCUCCCUCCUAAGGAGAAGACUGCGGGUUCGAGUCCCGUAUGGAACG
Given back: ≤ 0.5

Asked: Name the reported yeast fitness value associated with the variant GUUCCGUUGGCGUAAUGGUAACGCGUCUCCCUCCUAAGGAGAAGACUGCCGGUUAGAGUCCCGUACGGAACG
Given back: 0.619

Asked: Name the reported yeast fitness value associated with the variant GUUCCGUUGGCGUAAUAGUAACGCGUCUCCCACCUAAGGAGAAGACUGCGGGUUCGAGUCCCGUACGGAACG
Given back: 0.691

Asked: Name the reported yeast fitness value associated with the variant GUUCCGUUGGAGUAAUGGUAACGCGUCUCUCUCCUAAGGAGCAGACUGCGGGUUCGAGUCCCGUACGGAACG
Given back: ≤ 0.5

Asked: Name the reported yeast fitness value associated with the variant GUUCCGUUGGCGUCAUGGUAACGCGUCUCCCUCCUAAGGAGAAGACUGCGCGUUCGAGUCCCGUACGGAACG
Given back: 0.53

Asked: Name the reported yeast fitness value associated with the variant GUUGCGUUGCCGUAAUGGUAACGCGUGUCCCUCCUAGGAAGAAGACUGCGGGUUCGAGUCCCGUACGGAACG
Given back: ≤ 0.5

Asked: Name the reported yeast fitness value associated with the variant GUUCCGCUGGCGUCAUGGUAACGCGUCUCGCUCCUAAGGCGAUGACUGCGGGUUUGAGUCCCGUACGGAACG
Given back: 0.64

Asked: Name the reported yeast fitness value associated with the variant GUUCCGUUGGUGUAAUGGUAACGCGUCUCCCUCAUAAGGAGAAGACUGCGGGUUCGAGUCCCGUACGGAACG
Given back: 0.758

Asked: Name the reported yeast fitness value associated with the variant GUUCCGUUGGCGUGAUGGUAACGUGUCUCCCUCCUAAGGAGAAGACUGCGGGUUCAAGUCCCGUACGGAACG
Given back: 0.813
